# assayDetails: Cell Viability - LYMP2-003 (AID 965);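 further: cells exposed to compounds for 24 h before reading; nearly all actives have a fitted effect of over 50% in size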
# particulars: LYMP2-003 lymphoblastoid cell viability; series mostly up to 92.2 µM
# Excerpt: NIH Chemical Genomics Center [NCGC] NIH Molecular Libraries Screening Centers Network [MLSCN] National Institutes of Environmental Health Sciences [NIEHS] National Toxicology Program [NTP] We have developed a 1536-well cell-based assay for quantitative high throughput screening (qHTS) against a number of cell lines to determine in vitro cytotoxicity of small molecules. […] 8. Detection; Luminescence; Viewlux plate reader […]
Inconclusive results are not listed. Calls of active or inactive are those of the source. The call rests on the fitted dose curve; in most records, active means well fitted cell-killing curve with a large enough effect; inconclusive means small, poorly fitted or top-dose-only effect, or effect the other way; inactive means flat fitted curve, though single readings scatter.
assayMetric: outcome

CC(C)OS(C)(=O)=O : inactive
CCCCCc1cc(O)cc(O)c1 : inactive
CN(C)C(=O)Nc1cccc(C(F)(F)F)c1 : inactive
Cc1ccc(N)cc1N : inactive
ClP(Cl)(Cl)(Cl)Cl : inactive

Here's the next entry for you.
Give its outcome value. Item: Cl/C=C\Cl
inactive

====

# assayDetails: MultiTox-Fluor Cytotoxicity Assay - LYMP1-003 - Dead Cells (AID 961);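 further: cells exposed to compound for 16 h at 37 °C; nearly all actives have a fitted effect of over 70% in size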
# particulars: LYMP1-003 lymphoblastoid cells, dead-cell protease fluorescence; series mostly up to 92.2 µM
# Source text: NIH Chemical Genomics Center [NCGC] NIH Molecular Libraries Screening Centers Network [MLSCN] National Institutes of Environmental Health Sciences [NIEHS] National Toxicology Program [NTP] We have developed a 1536-well cell-based assay for quantitative high throughput screening (qHTS) against a number of cell lines to determine in vitro cytotoxicity of small molecules. […] 8. Detection; dead-cell fluorescence (Ex/Em=485/520); EnVision plate reader […]
Active and inactive are the calls of the source. The call rests on the fitted dose curve; in most records, active means well fitted cell-killing curve with a large enough effect; inconclusive means small, poorly fitted or top-dose-only effect, or effect the other way; inactive means flat fitted curve, though single readings scatter.
assayMetric: outcome

Solved entries (count: 5):
c1ccc(Nc2ccc(Nc3ccccc3)cc2)cc1 : inactive
ClC(Cl)C(Cl)Cl : inactive
Clc1ccccc1 : inactive
CC(C)(Cl)[N+](=O)[O-] : inactive
OC[P+](CO)(CO)CO : inactive

Give its outcome value. Item: Clc1ccc(C(Cl)(Cl)Cl)c(Cl)c1
inactive

Give its outcome value. Item: O=[N+]([O-])CCO
inactive

Give its outcome value. Item: Cc1ccccc1[N+](=O)[O-]
inactive

Give its outcome value. Item: CN(C)C(=O)Nc1ccc(Cl)cc1
inactive

====

# assayDetails: Cell Viability - LYMP2-026 (AID 989);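 further: cells exposed to compound for 24 h at 37 °C; nearly all actives have a fitted effect of over 50% in size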
# particulars: LYMP2-026 lymphoblastoid cell viability, qHTS; series mostly up to 92.2 µM
Results filed as inconclusive are left out. Calls of active or inactive are those of the source. The call rests on the fitted dose curve; in most records, active means well fitted cell-killing curve with a large enough effect; inconclusive means small, poorly fitted or top-dose-only effect; inactive means flat fitted curve, though single readings scatter.
assayMetric: outcome

CCCCOC(C)=O : inactive
Oc1cc(Cl)c(Cl)c(Cl)c1Cl : inactive
CC(C)OC(=O)Cc1ccccc1 : inactive
Cc1ccc(N)c(N)c1 : inactive
CCOP(=S)(OCC)SCCSCC : inactive

Give its outcome value. Item: Nc1c(Cl)cc([N+](=O)[O-])cc1Cl
inactive

Give its outcome value. Item: O=[N+]([O-])c1cc(Cl)c(Cl)c(Cl)c1
inactive

Give its outcome value. Item: O=P(OCCCl)(OCCCl)OCCCl
inactive

====

# assayDetails: Cell Viability - LYMP2-021 (AID 974);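 further: compound exposure lasts 24 hours at 37 °C; nearly all actives have a fitted effect of over 55% in size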
# particulars: LYMP2-021 lymphoblastoid cells viability; series mostly up to 92.2 µM
# Excerpt: NIH Chemical Genomics Center [NCGC] NIH Molecular Libraries Screening Centers Network [MLSCN] National Institutes of Environmental Health Sciences [NIEHS] National Toxicology Program [NTP] We have developed a 1536-well cell-based assay for quantitative high throughput screening (qHTS) against a number of cell lines to determine in vitro cytotoxicity of small molecules. […] 8. Detection; Luminescence; Viewlux plate reader […]
Inconclusive results are not listed. Activity calls are given as the source filed them. Calls come from the whole dose curve; as a rule, active = well fitted cell-killing curve with a large enough effect; inconclusive = small, poorly fitted or top-dose-only effect; inactive = flat fitted curve, though single readings scatter.
The reply should be one of these categories: active, inactive

OCCCCO : inactive

Given C=CCBr , state the outcome it received in this test.
inactive

Given c1ccc(P(c2ccccc2)c2ccccc2)cc1 , state the outcome it received in this test.
inactive

Given CN1CSC(=S)N(C)C1 , state the outcome it received in this test.
active

Given O=NN1CCCCC1 , state the outcome it received in this test.
inactive

Given CCOP(=S)(OCC)SCCSCC , state the outcome it received in this test.
inactive

====

# subjectOfTest: Peroxisome proliferator-activated receptor delta (Homo sapiens) (UniProt Q03181)
# Sequence (Q03181 whole entry, looked up): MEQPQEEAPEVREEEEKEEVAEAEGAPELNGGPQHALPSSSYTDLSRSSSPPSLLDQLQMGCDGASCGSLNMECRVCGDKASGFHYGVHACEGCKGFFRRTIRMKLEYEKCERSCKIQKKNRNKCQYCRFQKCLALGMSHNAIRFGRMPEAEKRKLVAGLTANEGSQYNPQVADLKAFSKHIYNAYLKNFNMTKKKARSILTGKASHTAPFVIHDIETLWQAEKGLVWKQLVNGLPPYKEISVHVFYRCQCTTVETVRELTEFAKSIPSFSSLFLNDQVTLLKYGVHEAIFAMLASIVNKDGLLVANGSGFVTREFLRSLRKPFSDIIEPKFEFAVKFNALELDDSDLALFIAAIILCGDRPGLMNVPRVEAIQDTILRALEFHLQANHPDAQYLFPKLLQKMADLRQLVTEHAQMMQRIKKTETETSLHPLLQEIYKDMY
# assayDetails: qHTS assay for small molecule agonists of peroxisome proliferator-activated receptor delta signaling (AID 588534)
# particulars: HEK293T PPARdelta-UAS-bla, beta-lactamase ratio, 18 h; series mostly up to 76.7 µM
# From the text: NIH Chemical Genomics Center [NCGC] U.S. Environmental Protection Agency [EPA] National Institutes of Environmental Health Sciences [NIEHS] National Toxicology Program [NTP] […] Compounds were screened in a titration series in 1536-well format. […] Detection; Fluorescence; Envision plate reader
Inconclusive results are not listed. Active and inactive are the calls of the source. Calls come from the whole dose curve.
assayMetric: outcome

Solved entries (count: 4):
C=CC(=O)OCC(CC)CCCC (centres undefined) : inactive
Cl/C=C\Cl : inactive
CCNCC : inactive
O=C(O)C(Br)CBr (centres undefined) : inactive

Give its outcome value. Item: ClCc1ccccc1
inactive

Give its outcome value. Item: O=[N+]([O-])c1ccc2c3c(cccc13)CC2
inactive

Give its outcome value. Item: C=CCCl
inactive

Give its outcome value. Item: O=C(Cl)c1ccccc1F
inactive

Give its outcome value. Item: CCOC(=O)CBr
inactive

Give its outcome value. Item: O=[N+]([O-])c1cc(Cl)c(Cl)cc1Cl
inactive

Give its outcome value. Item: O=P(OCCCl)(OCCCl)OCCCl
inactive

Give its outcome value. Item: Nc1ccc([N+](=O)[O-])cc1N
inactive

Give its outcome value. Item: O=[N+]([O-])c1cccc(O)c1
inactive

Give its outcome value. Item: O=C(O)c1cc(Cl)ccc1Cl
inactive

Give its outcome value. Item: CC(C)[C@]12CC(=O)[C@H](C)[C@H]1C2
inactive

Give its outcome value. Item: Cc1cccc(N)c1C
inactive

====

# subjectOfTest: Cytochrome P450 3A4 (Homo sapiens)
# assayDetails: qHTS Assay for Inhibitors and Substrates of Cytochrome P450 3A4 (AID 884); further: nearly all actives have a fitted effect of over 50% in size; further: potency means the concentration at half of the fitted maximal effect
# particulars: recombinant CYP3A4, Luciferin-PPXE luminescence; series mostly up to 57.1 µM
Results filed as inconclusive are left out. Active and inactive are the calls of the source. The call rests on the fitted dose curve; in most records, active means well fitted inhibition curve with a large enough effect; inconclusive means small, poorly fitted or top-dose-only effect; inactive means no such curve, though single readings can be large or run the other way.
assayMetric: Potency

Solved entries (count: 10):
Cc1ccc(N=C=O)cc1N=C=O : 15.8 µM (active)
O=c1ccc(=O)[nH][nH]1 : inactive
Nc1cccc(Cl)c1 : inactive
CCC(Cl)[N+](=O)[O-] (configuration not stated) : inactive
C=CC#N : inactive
c1ccoc1 : inactive
O=[N+]([O-])c1ccc(O)c([N+](=O)[O-])c1 : inactive
CCCCCc1cc(O)cc(O)c1 : 12.6 µM (active)
Cc1ccc([N+](=O)[O-])cc1 : inactive
C=CCCC#N : inactive

Give its Potency value. Item: Cl/C=C\Cl
inactive

Give its Potency value. Item: CC(C#N)CCC#N (configuration not stated)
inactive

Give its Potency value. Item: COc1cc(-c2ccc(N)c(OC)c2)ccc1N
12.6 µM (active)

Give its Potency value. Item: N#C/C=C/C#N
inactive

Give its Potency value. Item: Cc1ccc2c(c1N)C(=O)c1ccccc1C2=O
5.01 µM (active)

Give its Potency value. Item: Cc1cnc[nH]1
inactive

Give its Potency value. Item: Cc1coc2c1CCC(C)C2 (configuration not stated)
inactive

====

# subjectOfTest: Alpha-galactosidase A (Homo sapiens) (UniProt P06280)
# Sequence (P06280 whole entry, looked up): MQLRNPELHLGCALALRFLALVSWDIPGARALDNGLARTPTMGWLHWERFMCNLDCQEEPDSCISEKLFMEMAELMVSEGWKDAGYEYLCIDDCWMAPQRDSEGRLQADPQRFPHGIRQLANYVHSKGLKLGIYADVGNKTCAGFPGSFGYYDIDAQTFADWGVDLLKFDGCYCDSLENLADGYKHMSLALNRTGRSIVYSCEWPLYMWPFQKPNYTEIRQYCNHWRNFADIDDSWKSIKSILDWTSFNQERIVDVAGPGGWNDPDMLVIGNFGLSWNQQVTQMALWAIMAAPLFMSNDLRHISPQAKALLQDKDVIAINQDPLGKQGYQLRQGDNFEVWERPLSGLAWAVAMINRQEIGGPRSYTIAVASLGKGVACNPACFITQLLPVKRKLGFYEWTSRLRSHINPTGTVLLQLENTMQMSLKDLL
# assayDetails: Counterscreen for Glucocerebrosidase Inhibitors: qHTS Assay for Human alpha-Galactosidase at pH 4.5 (AID 992)
# particulars: purified enzyme, fluorogenic substrate; series mostly up to 76.9 µM
Active and inactive are the calls of the source. Calls come from the whole dose curve; as a rule, active = well fitted curve in the direction sought with a large enough effect; inactive = no such curve, though single readings can be large or run the other way.
assayMetric: outcome

CC(C)N[C@@H](C)Cc1ccc(I)cc1 : inactive
N[C@H](Cc1ccc(N(CCCl)CCCl)cc1)C(=O)O : inactive
C#CCN[C@@H](C)Cc1ccccc1 : inactive
C[C@@]12CC[C@H]3[C@@H](CC[C@@H]4C[C@H](O)CC[C@]43C)[C@H]1CC[C@H]2O : inactive
Nc1ncnc2c1ncn2[C@@H]1O[C@@H](COP(=O)(O)CP(=O)(O)OP(=O)(O)O)[C@H](O)[C@@H]1O : inactive
COc1ccc2c3c1O[C@@H]1C(=O)CC[C@@]4(O)[C@@H](C2)N(CC2CC2)CC[C@]314 : inactive
COc1ccc2c(c1)[C@]13CCCC[C@@H]1[C@H](C2)NCC3 : inactive
C[C@@H]1O[C@H]1P(=O)(O)O : inactive

Give its outcome value. Item: NC[C@H](O)c1cc(O)c(O)cc1F
inactive

Give its outcome value. Item: CC(C)C[C@H](NP(=O)(O)O[C@@H]1O[C@@H](C)[C@@H](O)[C@@H](O)[C@H]1O)C(=O)N[C@@H](Cc1c[nH]c2ccccc12)C(=O)O
inactive

Give its outcome value. Item: N[C@H](Cn1ccc(=O)[nH]c1=O)C(=O)O
inactive

Give its outcome value. Item: CCn1cnc2c(Nc3cccc(Cl)c3)nc(N[C@@H]3CCCC[C@H]3N)nc21
inactive

Give its outcome value. Item: O=C(O)[C@H]1CCN1
inactive

Give its outcome value. Item: C=CCN1CC[C@]23c4c5ccc(O)c4O[C@@H]2/C(=N/NC(=O)c2ccccc2)CC[C@@]3(O)[C@H]1C5
inactive

Give its outcome value. Item: C[C@@H]1Cc2cc3c(cc2C(c2ccc(N)cc2)=NN1)OCO3
inactive

Give its outcome value. Item: C[C@@]12CC[C@H]3[C@@H](CC=C4C[C@H](OS(=O)(=O)O)CC[C@]43C)[C@H]1CCC2=O
inactive

Give its outcome value. Item: C[Se]C[C@@H](N)C(=O)O
inactive

Give its outcome value. Item: C[C@@]12CC[C@H]3[C@@H](CCC4=C(O)C(=O)CC[C@]43C)[C@H]1CCC2=O
inactive

Give its outcome value. Item: Oc1ccc2c3c1O[C@@H]1c4[nH]c5c(c4C[C@@]4(O)[C@@H](C2)N(CC2CC2)CC[C@]314)C[C@]1(O)[C@@H]2Cc3ccc(O)c4c3[C@@]1(CCN2CC1CC1)[C@H]5O4
inactive

Give its outcome value. Item: CC(=O)[C@@H]1CC[C@H]2[C@H]3CC[C@H]4C[C@@H](O)CC[C@]4(C)[C@@H]3CC[C@]12C
inactive
